target-desc: human GPR120 (Homo sapiens)
Construct: host or cells: HEK293 cells co-expressing Gqi5
assay-explanation: Intracellular Ca2+ assay in human GPR120 stable cell line (FLIPR Calcium 4 dye, Flexstation)
Type: cell-based
study-conditions: HEK293, % activity at 2.5 µM compared to the maximal activity of the compound of Example 25 at 2.5 µM (=100%); HEK293 cells co-expressing Gqi5; read-out: % Activity (Ex. 25 Reference Compound)
endpoint-label: activity at 2.5 µM (%)
Kindly answer with a numeric value in %, unit omitted.

For the compound shown here, [2H]C([2H])(C(=O)O)C([2H])([2H])c1ccc(OCc2cc(F)cc3c2OC(C)(C)C3)c(F)c1CC [Example 243] , give the reported activity at 2.5 µM. 155

For the compound shown here, CC1(C)Cc2cc(Cl)cc(COc3ccc(CCC(=O)O)c(-c4ccccc4)c3)c2O1 [Example 71] , give the reported activity at 2.5 µM. 134

For the compound shown here, Cc1cc(OCC(=O)O)ccc1OCc1cc(Cl)cc2c1OC(C)(C)C2 [Example 103] , give the reported activity at 2.5 µM. 99

For the compound shown here, Cc1cc2c(OCc3cc(F)cc4c3OC(C)(C)C4)ccc(CCC(=O)O)c2o1 [Example 125] , give the reported activity at 2.5 µM. 32.6

For the compound shown here, [2H]C([2H])(C(=O)O)C([2H])([2H])c1ccc(OCc2cc(Cl)cc3c2OC(C)(C)C3)c(F)c1 [Example 241] , give the reported activity at 2.5 µM. 160

----------
Tested on: C57BL/6J mice
assay-explanation: Intra peritoneal glucose tolerance test (IPGTT)
Format: in vivo
study-conditions: Mus musculus, 2 h; 30 mg/kg oral gavage 30 min before 2g/kg glucose intra peritoneally; overnight fasted male C57BL/6J mice; incremental AUC of glucose excursion vs vehicle; read-out: % reduction IPGTT at 30mg/kg
Consider the following compounds; for each one, report its inhibition in vivo at 30 mg/kg.

For the compound shown here, CC1(C)Cc2cc(Cl)cc(COc3ccc(CCC(=O)O)c4c3CCC4)c2O1 , give the reported inhibition in vivo at 30 mg/kg. 24.9%

For the compound shown here, CC1(C)Cc2cc(F)cc(COc3ccc4c(c3)CC[C@@H]4CC(=O)O)c2O1 , give the reported inhibition in vivo at 30 mg/kg. 16.3%

For the compound shown here, Cc1c(CCC(=O)O)ccc(OCc2cc(F)cc3c2OC(C)(C)C3)c1C , give the reported inhibition in vivo at 30 mg/kg. 41.7%

For the compound shown here, COc1cc(OCc2cc(F)cc3c2OC(C)(C)C3)ccc1CCC(=O)O , give the reported inhibition in vivo at 30 mg/kg. 26.2%

For the compound shown here, CCOc1cc(OCc2cc(F)cc3c2OC(C)(C)C3)ccc1CCC(=O)O , give the reported inhibition in vivo at 30 mg/kg. 23%

For the compound shown here, C[C@H](Cc1ccc(OCc2cc(F)cc3c2OC(C)(C)C3)cc1)C(=O)O , give the reported inhibition in vivo at 30 mg/kg. 22.2%

For the compound shown here, CC1(C)Cc2cc(F)cc(COc3ccc(CCC(=O)O)cc3)c2O1 , give the reported inhibition in vivo at 30 mg/kg. 6.5%

----------
Consider the following compounds; for each one, report its activity at 5 µM.
target-desc: human GPR120 (Homo sapiens)
Construct: host or cells: HEK293 cells co-expressing Gqi5
Sequence (Q5NUL3 1-361): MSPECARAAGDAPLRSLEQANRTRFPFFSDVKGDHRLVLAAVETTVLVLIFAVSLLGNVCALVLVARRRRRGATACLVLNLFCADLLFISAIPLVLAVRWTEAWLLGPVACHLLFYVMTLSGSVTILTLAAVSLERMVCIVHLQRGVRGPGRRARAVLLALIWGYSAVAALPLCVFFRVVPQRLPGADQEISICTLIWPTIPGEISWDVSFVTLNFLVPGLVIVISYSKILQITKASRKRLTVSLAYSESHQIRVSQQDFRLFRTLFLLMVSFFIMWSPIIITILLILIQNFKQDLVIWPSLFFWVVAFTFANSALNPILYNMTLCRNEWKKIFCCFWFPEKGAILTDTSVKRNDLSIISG
assay-explanation: Intracellular Ca2+ assay in human GPR120 stable cell line (FLIPR Calcium 4 dye, Flexstation)
Type: cell-based
study-conditions: HEK293, % activity at 5 µM compared to the maximal activity of GW9508 at 6.7 µM (=100%); HEK293 cells co-expressing Gqi5; read-out: %Activity (GW9508 Reference Compound)
Kindly answer with a numeric value in %, unit omitted.

For the compound shown here, CC(Cc1ccc(OCc2ccc(C(F)(F)F)c3c2OC(C)(C)C3)c(F)c1)C(=O)O (stereo not drawn) , give the reported activity at 5 µM. 143

For the compound shown here, CC(Cc1cc(F)c(OCc2cccc3c2OC(C)(C)C3)c(F)c1)C(=O)O (stereo not drawn) , give the reported activity at 5 µM. 113

For the compound shown here, CC(Cc1ccc(OCc2cccc3c2CC(C)(C)O3)cc1)C(=O)O (stereo not drawn) , give the reported activity at 5 µM. 72.2

For the compound shown here, CC(Cc1ccc(OCc2ccc(F)c3c2OC(C)(C)C3)cc1)C(=O)O (stereo not drawn) , give the reported activity at 5 µM. 177

For the compound shown here, CC1(C)Cc2c(C(F)(F)F)ccc(COc3c(F)cc(C4CC4C(=O)O)cc3F)c2O1 (stereo not drawn) , give the reported activity at 5 µM. 150

For the compound shown here, CC1(C)Cc2cccc(COc3c(F)cc(CCC(=O)O)cc3F)c2O1 , give the reported activity at 5 µM. 102

For the compound shown here, CC(Cc1ccc(OCc2ccc(C(F)(F)F)c3c2OC(C)(C)C3)cc1)C(=O)O (stereo not drawn) , give the reported activity at 5 µM. 118

For the compound shown here, CC1(C)Cc2cc(F)cc(COc3ccc4c(c3)CCC4CC(=O)O)c2O1 (stereo not drawn) , give the reported activity at 5 µM. 125

For the compound shown here, CC1Cc2cccc(COc3c(F)cc(CCC(=O)O)cc3F)c2O1 (stereo not drawn) , give the reported activity at 5 µM. 138

----------
target-desc: human GPR120 (Homo sapiens, UniProt Q5NUL3)
Construct: host or cells: HEK293 cells co-expressing Gqi5
assay-explanation: Intracellular Ca2+ assay in human GPR120 stable cell line (FLIPR Calcium 4 dye, Flexstation)
Assay type: cell-based
study-conditions: HEK293, % activity at 5 µM compared to the maximal activity of GW9508 at 6.7 µM (=100%); HEK293 cells co-expressing Gqi5; read-out: %Activity (GW9508 Reference Compound)
Consider the following molecules; for each one, report its activity at 5 µM.
Kindly answer with a numeric value in %, unit omitted.

For the molecule shown here, Cc1cc(CC(C)C(=O)O)ccc1OCc1cc(Cl)cc2c1OC(C)(C)C2 (stereo not drawn) , give the reported activity at 5 µM. 124

For the molecule shown here, CC(Cc1cc(F)c(OCc2cc(F)cc3c2OC(C)(C)C3)c(F)c1)C(=O)O (stereo not drawn) , give the reported activity at 5 µM. 130

For the molecule shown here, CC(Cc1cc(F)c(OCc2ccc(C(F)(F)F)c3c2OC(C)(C)C3)c(F)c1)C(=O)O (stereo not drawn) , give the reported activity at 5 µM. 143

For the molecule shown here, CC1(C)Cc2cccc(COc3c(F)cc(C4CC4C(=O)O)cc3F)c2O1 (stereo not drawn) , give the reported activity at 5 µM. 100

For the molecule shown here, CC1(C)Cc2cc(Cl)cc(COc3ccc4c(c3)CCC4CC(=O)O)c2O1 (stereo not drawn) , give the reported activity at 5 µM. 123

For the molecule shown here, CC(Cc1ccc(OCc2cc(Cl)cc3c2OC(C)(C)C3)cc1Cl)C(=O)O (stereo not drawn) , give the reported activity at 5 µM. 164

For the molecule shown here, CC(Cc1ccc(OCc2ccc(F)c3c2OC(C)(C)C3)c(F)c1)C(=O)O (stereo not drawn) , give the reported activity at 5 µM. 134

For the molecule shown here, CC(Cc1cc(F)c(OCc2cc(Cl)cc3c2OC(C)(C)C3)c(F)c1)C(=O)O (stereo not drawn) , give the reported activity at 5 µM. 83.4

For the molecule shown here, CC(Cc1ccc(OCc2cc(Cl)cc3c2OC(C)(C)C3)c(Cl)c1)C(=O)O (stereo not drawn) , give the reported activity at 5 µM. 116

For the molecule shown here, CC(Cc1cc(F)c(OCc2cccc3c2CC(C)(C)O3)c(F)c1)C(=O)O (stereo not drawn) , give the reported activity at 5 µM. 113

For the molecule shown here, CC(Cc1cc(F)c(OCc2cccc3c2OC(C)C3C)c(F)c1)C(=O)O (stereo not drawn) , give the reported activity at 5 µM. 95.3

For the molecule shown here, Cc1cc(COc2c(F)cc(CC(C)C(=O)O)cc2F)c2c(c1)CC(C)(C)O2 (stereo not drawn) , give the reported activity at 5 µM. 149

For the molecule shown here, CC1(C)Cc2c(F)ccc(COc3c(F)cc(C4CC4C(=O)O)cc3F)c2O1 (stereo not drawn) , give the reported activity at 5 µM. 144

For the molecule shown here, CC(Cc1cc(F)c(OCc2cccc3c2OC(C)(C)CC3)c(F)c1)C(=O)O (stereo not drawn) , give the reported activity at 5 µM. 135

For the molecule shown here, CC1(C)Cc2c(COc3c(F)cc(C4CC4C(=O)O)cc3F)cccc2O1 (stereo not drawn) , give the reported activity at 5 µM. 126

For the molecule shown here, COc1cc(CC(C)C(=O)O)ccc1OCc1cc(Cl)cc2c1OC(C)(C)C2 (stereo not drawn) , give the reported activity at 5 µM. 109

For the molecule shown here, CC(Cc1ccc(OCc2cc(Cl)cc3c2OC(C)(C)C3)c(C(F)(F)F)c1)C(=O)O (stereo not drawn) , give the reported activity at 5 µM. 113

For the molecule shown here, CC(Cc1cc(F)c(OCc2cccc3c2OCC3)c(F)c1)C(=O)O (stereo not drawn) , give the reported activity at 5 µM. 124

For the molecule shown here, CC(Cc1ccc(OCc2cc(F)cc3c2OC(C)(C)C3)cc1)C(=O)O (stereo not drawn) , give the reported activity at 5 µM. 111

For the molecule shown here, CC1(C)Cc2cc(F)cc(COc3c(F)cc(C4CC4C(=O)O)cc3F)c2O1 (stereo not drawn) , give the reported activity at 5 µM. 126

For the molecule shown here, CC(Cc1ccc(OCc2cc(F)cc3c2OC(C)(C)C3)c(F)c1)C(=O)O (stereo not drawn) , give the reported activity at 5 µM. 135

For the molecule shown here, CC(Cc1cc(F)c(OCc2ccc(F)c3c2OC(C)(C)C3)c(F)c1)C(=O)O (stereo not drawn) , give the reported activity at 5 µM. 110

For the molecule shown here, Cc1cc(CC(C)C(=O)O)ccc1OCc1cc(F)cc2c1OC(C)(C)C2 (stereo not drawn) , give the reported activity at 5 µM. 147

For the molecule shown here, CC1(C)Cc2cc(Cl)cc(COc3c(F)cc(C4CC4C(=O)O)cc3F)c2O1 (racemic) , give the reported activity at 5 µM. 60.1

For the molecule shown here, CC(Cc1cc(Cl)c(OCc2cc(Cl)cc3c2OC(C)(C)C3)c(Cl)c1)C(=O)O (stereo not drawn) , give the reported activity at 5 µM. 84.5

For the molecule shown here, Cc1cc(COc2ccc(CC(C)C(=O)O)cc2)c2c(c1)CC(C)(C)O2 (stereo not drawn) , give the reported activity at 5 µM. 111

For the molecule shown here, COc1cc(CC(C)C(=O)O)ccc1OCc1cc(F)cc2c1OC(C)(C)C2 (stereo not drawn) , give the reported activity at 5 µM. 168
